- ASSAY NAME: Cytotoxicity in HEK293T cells assessed as cell recovery rate at 200 ug/ml incubated for 48 hrs by MTT assay relative to control
- Format: cell-based, HEK-293T
- CONDITION PARAMETERS: human, read-out: Activity
ASSAY METRIC: viability at 48 h, 200 ug/ml (%)

| SMILES STRING | RECORDED VALUE |
| --- | --- |
| O=c1cc(CP(=O)(O)O)c2c(Br)cc(Br)cc2[nH]1 | 70 |

---

- ASSAY NAME: Apparent permeability from basolateral to apical side in MDCK-MDR1 cells
- Format: ADME, cell-based, Canis lupus familiaris
- CONDITION PARAMETERS: dog
ASSAY METRIC: Papp

| SMILES STRING | RECORDED VALUE |
| --- | --- |
| O=c1cc(CP(=O)(O)O)c2c(Br)cc(Br)cc2[nH]1 | < 0.2 ×10⁻⁶ cm/s |

---

- ASSAY NAME: Inhibition of N-terminal 6x-His-tagged Klebsiella pneumoniae KPC2 (25 to 293 residues) assessed as reduction in nitrocefin hydrolysis by spectrophotometry

| SMILES STRING | Ki |
| --- | --- |
| O=P(O)(O)Cc1ccnc2ccccc12 | 326 µM |
| Cc1cc(C)c2c(CP(=O)(O)O)cc(=O)[nH]c2c1 | 2.2 µM |
| Cc1cc(F)c2c(CP(=O)(O)O)cc(=O)oc2c1 | 8.5 µM |
| O=c1cc(CP(=O)(O)O)c2c(Br)cc(Br)cc2[nH]1 | 0.02 µM |
| COc1cc(C)cc2oc(=O)cc(CP(=O)(O)O)c12 | 11.9 µM |
